Sourced from patent US20110092418A1

Molecular target: T1, LGR7 (RXFP1) receptor (UniProt Q9HBX9 1-757, limits assumed)
T1 sequence (looked up): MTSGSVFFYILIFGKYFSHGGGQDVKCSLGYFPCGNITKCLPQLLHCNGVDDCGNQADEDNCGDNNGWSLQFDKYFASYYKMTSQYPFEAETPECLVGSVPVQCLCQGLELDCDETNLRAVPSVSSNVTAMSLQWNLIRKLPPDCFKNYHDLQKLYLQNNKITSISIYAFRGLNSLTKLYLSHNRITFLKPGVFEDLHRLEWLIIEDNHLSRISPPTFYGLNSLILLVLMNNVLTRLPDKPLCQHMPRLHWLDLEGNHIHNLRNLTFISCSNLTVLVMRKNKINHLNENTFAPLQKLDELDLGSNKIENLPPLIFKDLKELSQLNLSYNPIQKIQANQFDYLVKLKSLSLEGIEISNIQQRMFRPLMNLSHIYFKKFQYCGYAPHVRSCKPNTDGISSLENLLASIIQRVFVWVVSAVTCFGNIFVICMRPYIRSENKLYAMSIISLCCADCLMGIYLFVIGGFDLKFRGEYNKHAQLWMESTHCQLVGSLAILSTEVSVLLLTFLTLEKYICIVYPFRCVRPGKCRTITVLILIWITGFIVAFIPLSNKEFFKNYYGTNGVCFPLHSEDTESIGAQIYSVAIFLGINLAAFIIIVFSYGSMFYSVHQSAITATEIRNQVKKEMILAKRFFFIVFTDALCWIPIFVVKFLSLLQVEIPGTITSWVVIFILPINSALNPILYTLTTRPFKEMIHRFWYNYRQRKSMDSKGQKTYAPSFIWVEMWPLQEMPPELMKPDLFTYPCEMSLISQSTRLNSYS
Assay: cell-based or functional assay
No end group written: not given here.
Provide the recorded LGR7 cAMP pEC50 for the entries that follow.
Answers are plain numbers, in pEC50.

Some solved cases for reference:
>  <Binder>
human relaxin 3 (H3), wild-type; A + B chain (ligand, disulfide (positions not given here); also: A and B chains joined by disulphide bonds, places not given here, domain: B chain; Two-chain peptide hormone, A and B chains joined by disulphide bonds; also called H3 relaxin) chain 1: RAAPYGVRLCGREFIRAVIFTCGGSRW chain 2: DVLAGLSSSCCKWGCSKSEISSLC

>  <Test Result>
9.36

$$$$
>  <Binder>
chimeric relaxin polypeptide H2 B chain/H3 relaxin A chain (designed binder, Synthetic two-chain chimera; The synthesis protocol is detailed only for H2-B/H1-A; also called H2-B/H3-A) chain 1: DSWMEEVIKLCGRELVRAQIAICGMSTWS chain 2: DVLAGLSSSCCKWGCSKSEISSLC

>  <Test Result>
8.1

$$$$

Kindly give each listed record's LGR7 cAMP pEC50.
1. human relaxin 2 (H2), wild-type; A + B chain (ligand, disulfide (positions not given here); also: A and B chains joined by disulphide bonds, places not given here, Two-chain peptide hormone, A and B chains joined by disulphide bonds; also called H2 relaxin) chain 1: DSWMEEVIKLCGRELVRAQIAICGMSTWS chain 2: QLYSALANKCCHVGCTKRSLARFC
2. chimeric relaxin polypeptide H2 B chain/INSL5 A chain (designed binder, Synthetic two-chain chimera; The synthesis protocol is detailed only for H2-B/H1-A; also called H2-B/INSL5-A) chain 1: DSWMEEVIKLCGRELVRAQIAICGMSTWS chain 2: DLQTLCCTDGCSMTDLSALC

Result block:
[10.3, 6.37]
